- Tested on: Escherichia coli
- TEST METHOD NOTES: minimum inhibitory concentration (MIC)
- CONDITIONS USED: isolate (source animal id): 151
Here the recorded minimum inhibitory concentration is given for each entry.
REPORTED ENDPOINT: minimum inhibitory concentration

{"COMPOUND": "CC[C@H]1OC(=O)C[C@@H](O)[C@H](C)[C@@H](O[C@@H]2O[C@H](C)[C@@H](O)[C@H](N(C)C)[C@H]2O)[C@@H](CCN2CCCCC2)C[C@@H](C)C(=O)/C=C/C(C)=C/[C@@H]1CN1CCCCC1 [Tildipirosin]", "MEASURED ON": "Escherichia coli", "RESULT": "4 µg/mL"}
{"COMPOUND": "CNC(C)C1CCC(N)C(OC2C(N)CC(N)C(OC3OCC(C)(O)C(NC)C3O)C2O)O1 (stereo unspecified) [Gentamicin]", "MEASURED ON": "Escherichia coli", "RESULT": "≤ 1 µg/mL"}
{"COMPOUND": "CCCNC[C@]1(O)[C@H](C)O[C@@H](O[C@H]2[C@H](C)[C@@H](O[C@@H]3O[C@H](C)C[C@H](N(C)C)[C@H]3O)[C@](C)(O)C[C@@H](C)CN[C@H](C)[C@@H](O)[C@](C)(O)[C@@H](CC)OC(=O)[C@@H]2C)C[C@@]1(C)OC [Tulathromycin]", "MEASURED ON": "Escherichia coli", "RESULT": "≤ 8 µg/mL"}
{"COMPOUND": "COc1cc(NS(=O)(=O)c2ccc(N)cc2)nc(OC)n1 [sulfadimethoxine]", "MEASURED ON": "Escherichia coli", "RESULT": "> 256 µg/mL"}
{"COMPOUND": "CC1(C)S[C@@H]2[C@H](NC(=O)[C@H](N)c3ccccc3)C(=O)N2[C@H]1C(=O)O [Ampicillin]", "MEASURED ON": "Escherichia coli", "RESULT": "1 µg/mL"}
{"COMPOUND": "CC[C@H]1OC(=O)C[C@@H](O)[C@H](C)[C@@H](O[C@@H]2O[C@H](C)[C@@H](O[C@H]3C[C@@](C)(O)[C@@H](O)[C@H](C)O3)[C@H](N(C)C)[C@H]2O)[C@@H](CC=O)C[C@@H](C)C(=O)/C=C/C(C)=C/[C@@H]1CO[C@@H]1O[C@H](C)[C@@H](O)[C@@H](OC)[C@H]1OC [Tylosin]", "MEASURED ON": "Escherichia coli", "RESULT": "> 32 µg/mL"}

Source of measurements: the supplement of paper PMC8612539
